System: Vero E6/TMPRSS2 cells
Assay type: cell-based
Settings: Vero E6/TMPRSS2 cells, 72 h, microscope; twofold dilutions with 10 mM as highest concentration
VALUE TYPE: Highest non-toxic concentration (mM)
The reply should contain only the number, in mM.

[[record]]
structure_smiles_string = "OC[C@H]1O[C@@H]2O[C@H]3[C@H](O)[C@@H](O)[C@@H](O[C@H]4[C@H](O)[C@@H](O)[C@@H](O[C@H]5[C@H](O)[C@@H](O)[C@@H](O[C@H]6[C@H](O)[C@@H](O)[C@@H](O[C@H]7[C@H](O)[C@@H](O)[C@@H](O[C@H]1[C@H](O)[C@H]2O)O[C@@H]7CO)O[C@@H]6CO)O[C@@H]5CO)O[C@@H]4CO)O[C@@H]3CO"
subject_of_test = "Vero E6/TMPRSS2 cells"
test_value = 5.00


Turning now to a further record.
### Prompt Give Highest non-toxic concentration for the following compound: OC[C@H]1O[C@@H]2O[C@H]3[C@H](O)[C@@H](O)[C@@H](O[C@H]4[C@H](O)[C@@H](O)[C@@H](O[C@H]5[C@H](O)[C@@H](O)[C@@H](O[C@H]6[C@H](O)[C@@H](O)[C@@H](O[C@H]7[C@H](O)[C@@H](O)[C@@H](O[C@H]8[C@H](O)[C@@H](O)[C@@H](O[C@H]9[C@H](O)[C@@H](O)[C@@H](O[C@H]1[C@H](O)[C@H]2O)O[C@@H]9CO)O[C@@H]8CO)O[C@@H]7CO)O[C@@H]6CO)O[C@@H]5CO)O[C@@H]4CO)O[C@@H]3CO
### Response 2.50

src = paper PMC12724303
